Organism: Rattus norvegicus
measurement-protocol: Open TG-GATES - Regimen: Single
Format: toxicity, organism-based, Sprague-Dawley
Set-up: regimen Single, gender Male, age 6 weeks
stated-conditions: in vivo, po, 100 mg/kg, 9 h, tissue Kidney, route gavage, dose level Low
Consider the following molecules; for each one, report its KIDNEY_TOTAL.
One number for each entry, in g.

Here is how some molecules turned out for KIDNEY_TOTAL.
CN/C(=N/CCSCc1nc[nH]c1C)NC#N [CIMETIDINE]: 1.9
CNC(=C[N+](=O)[O-])NCCSCc1ccc(CN(C)C)o1 [RANITIDINE]: 1.9

# evaluate next
Ask: Bench note: what KIDNEY_TOTAL did Cc1nnc2n1-c1ccc(Cl)cc1C(c1ccccc1Cl)=NC2 [TRIAZOLAM] show?
Result: 1.7

---

Organism: Rattus norvegicus
measurement-protocol: Open TG-GATES - Regimen: Daily Repeat
Assay type: toxicity, organism-based, Sprague-Dawley
Set-up: regimen Daily Repeat, gender Male, age 6 weeks
stated-conditions: in vivo, po, 1000 mg/kg, […], tissue Blood, route gavage, dose level High, time 28 day
# binarize Neu: threshold 20% inclusive, high side 1.0, low side 0.0

Ask: hey, is Neu for this one >= 20%? COC(=O)C1=C(C)NC(C)=C(C(=O)OC)C1c1ccccc1[N+](=O)[O-]
Result: 0.0

Ask: Entry CCOc1ccc(NC(C)=O)cc1 please
Result: 1.0

Ask: # repeat for CNC(=C[N+](=O)[O-])NCCSCc1ccc(CN(C)C)o1
Result: 0.0

---

Species on record: Rattus norvegicus
measurement-protocol: Open TG-GATES - Regimen: Daily Repeat
Assay type: toxicity, organism-based, Sprague-Dawley
Set-up: regimen Daily Repeat, gender Male, age 6 weeks
stated-conditions: in vivo, po, 0 mg/kg, […], tissue Plasma, route gavage, dose level Control, time 7 day
TBIL under 0.04 mg/dL gets Met, anything at or over 0.04 mg/dL gets Not met.

The following compounds have reported results that may help.
Nc1c2c(nc3ccccc13)CCCC2: Met
CN/C(=N/CCSCc1nc[nH]c1C)NC#N: Not met
Brc1ccccc1: Not met
O=C(OC[C@H]1O[C@@H](OC(=O)c2cc(O)c(O)c(OC(=O)c3cc(O)c(O)c(O)c3)c2)[C@H](OC(=O)c2cc(O)c(O)c(OC(=O)c3cc(O)c(O)c(O)c3)c2)[C@@H](OC(=O)c2cc(O)c(O)c(OC(=O)c3cc(O)c(O)c(O)c3)c2)[C@@H]1OC(=O)c1cc(O)c(O)c(OC(=O)c2cc(O)c(O)c(O)c2)c1)c1cc(O)c(O)c(OC(=O)c2cc(O)c(O)c(O)c2)c1: Not met

Ask: Please indicate whether the reported TBIL of CC(C)NNC(=O)c1ccncc1 is strictly below 0.04 mg/dL.
Result: Met

Ask: Another compound to check: Cc1nnc2n1-c1ccc(Cl)cc1C(c1ccccc1Cl)=NC2
Result: Not met

Ask: Again, but for CN1C(=O)CCS(=O)(=O)C1c1ccc(Cl)cc1 (stereo not drawn)
Result: Met

---

Species: Rattus norvegicus
measurement-protocol: Open TG-GATES - Regimen: Single
Format: toxicity, organism-based, Sprague-Dawley
Set-up: regimen Single, gender Male, age 6 weeks
stated-conditions: in vivo, po, 1000 mg/kg, 6 h, tissue Blood, route gavage, dose level High
reported-metric: MCHC (%)
Give bare numbers, in %.

Use the examples below as a reference point.
Cc1nnc2n1-c1ccc(Cl)cc1C(c1ccccc1Cl)=NC2: 32.8
CNC(=C[N+](=O)[O-])NCCSCc1ccc(CN(C)C)o1: 35.1
CN/C(=N/CCSCc1nc[nH]c1C)NC#N: 34.5
O=C(OC[C@H]1O[C@@H](OC(=O)c2cc(O)c(O)c(OC(=O)c3cc(O)c(O)c(O)c3)c2)[C@H](OC(=O)c2cc(O)c(O)c(OC(=O)c3cc(O)c(O)c(O)c3)c2)[C@@H](OC(=O)c2cc(O)c(O)c(OC(=O)c3cc(O)c(O)c(O)c3)c2)[C@@H]1OC(=O)c1cc(O)c(O)c(OC(=O)c2cc(O)c(O)c(O)c2)c1)c1cc(O)c(O)c(OC(=O)c2cc(O)c(O)c(O)c2)c1: 33.3

Now look at this entry.
Ask: I would be grateful if you could share the reported MCHC for COC(=O)C1=C(C)NC(C)=C(C(=O)OC)C1c1ccccc1[N+](=O)[O-] .
Result: 32.8
